biological target: LmrR (Lactococcus cremoris); construct: LmrR homodimer; untagged protein for the crystal (residues 1–5, 70–75 and 109–116 not modelled); assay: co-crystal structure ([…] Å) and riboflavin fluorescence quenching titration
Sequence (A2RI36 1-116): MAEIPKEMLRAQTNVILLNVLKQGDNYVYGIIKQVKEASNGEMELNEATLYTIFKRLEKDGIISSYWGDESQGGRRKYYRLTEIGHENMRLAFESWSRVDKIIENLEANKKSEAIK
observed.property: pKd
Quick note: pKd means taking -log10 of the concentration in moles per liter.

[in] Report pKd for Cc1cc2nc3c(=O)[nH]c(=O)nc-3n(C[C@H](O)[C@H](O)[C@H](O)CO)c2cc1C
[out] 6.59
